Listed here: items and their measured GI50.
- Test system: HOP-62
- Test Method Notes: NCI tumour cell line growth inhibition, 48 h
Activity calls are given as the source filed them. Rule as the data show it: active = GI50 up to about 1.1 µM and inactive = higher.

// solved cases for GI50 follow
Molecule	GI50
N=C(N)n1nc2c(c1O)CCCC2	> 100 µM (inactive)
O=C1c2ccccc2C(=O)C2C1C1C(=O)c3ccccc3C(=O)C21 (stereo unspecified)	> 100 µM (inactive)
CC1(C)N[PH]2(Nc3ccccc3O2)OC1=O	> 100 µM (inactive)
N=c1n(CC(=O)NC23CC4CC(CC(C4)C2)C3)c2ccccc2n1CC(=O)NC12CC3CC(CC(C3)C1)C2	2.02 µM (inactive)

Asked: Field request: GI50 | item: N=C(CC(=O)Nc1ccc(Cl)cc1)Nc1ccccc1
Given back: > 100 µM (inactive)

Asked: Field request: GI50 | item: OC12c3ccccc3C3CCC4(OCCO4)C3C1c1ccccc12 (stereo unspecified)
Given back: > 100 µM (inactive)

Asked: Field request: GI50 | item: O=C1CC(NC2CC(=O)c3c(Br)sc(Br)c32)c2c(Br)sc(Br)c21 (stereo unspecified)
Given back: 2.99 µM (inactive)

Asked: Field request: GI50 | item: CC(=O)Nc1ccccc1NC1CC(C)N(c2ccccc2)N1C(C)=O (stereo unspecified)
Given back: > 10 µM (inactive)

Asked: Field request: GI50 | item: COC(=O)c1ccc(Oc2nc3ccccc3nc2-c2cccs2)cc1
Given back: 11.9 µM (inactive)

Asked: Field request: GI50 | item: C#CCOCCCC(=O)O
Given back: > 100 µM (inactive)

Asked: Field request: GI50 | item: CC(NNC(=O)c1cc[n+]([BH2-]C#N)cc1)C(F)(F)F (stereo unspecified)
Given back: > 100 µM (inactive)

* * *

- System: PC-3
- Test Method Notes: NCI tumour cell line growth inhibition, 48 h
Calls of active or inactive are those of the source. No stated cut-off is given here; in the data, active = GI50 up to about 1.1 µM and inactive = higher.
Just give me one of these, please: 1 (yes) for active, 0 (no) for inactive

Compound	Assayed System	Label Class
Cc1cc(-c2nc3cc(F)ccc3s2)ccc1NC(=O)[C@@H](N)CCCCN	PC-3	0 (no)

Asked: For Cc1onc(-c2c(F)cccc2Cl)c1C(=O)N[C@@H]1C(=O)N2[C@@H]1SC(C)(C)[C@@H]2C(=O)O , which call appears in the assay record?
Given back: 0 (no)

Asked: For COc1cccc(-c2nc(N)c(C#N)c3c2CCS(=O)(=O)c2ccc(C)cc2-3)c1 , which call appears in the assay record?
Given back: 0 (no)

* * *

- Test system: SK-MEL-28
- Test Method Notes: NCI tumour cell line growth inhibition, 48 h
The source made the active and inactive calls. No stated cut-off is given here; in the data, active = GI50 up to about 1.1 µM and inactive = higher.
Listed here: items and their measured GI50.

// solved cases for GI50 follow
Compound	GI50
O=C1CNCCCN2CCN(CCCNCC(=O)Nc3ccc(cc3)S(=O)(=O)c3ccc(cc3)NC(=O)CNCCCN3CCN(CCCNCC(=O)Nc4ccc(cc4)S(=O)(=O)c4ccc(cc4)N1)CC3)CC2	22.3 µM (inactive)
CN(C(=O)Cc1cc(Cl)c(Cl)cc1N=C=S)[C@H]1CCCC[C@@H]1N1CCCC1	1.39 µM (inactive)
C[C@]12CC[C@H](OC3CCCCO3)CC1=CC[C@@H]1C2CC[C@]2(C)/C(=N/O)CCC12 (some centres undefined)	21.3 µM (inactive)
COC(=O)c1ccc2c(O)c(O)ccc2c1	16.3 µM (inactive)
O=C(NO)c1ccc(O)c(O)c1	> 100 µM (inactive)

Asked: Field request: GI50 | item: O=C(/C=C/c1ccc2ccccc2c1)NCc1ccc(C(=O)NCCc2ccccc2)cc1
Given back: > 100 µM (inactive)

Asked: Field request: GI50 | item: C[N+]1(CCC(=O)c2ccco2)CC2CCC(CC2)C1 (centres undefined)
Given back: > 100 µM (inactive)

Asked: Field request: GI50 | item: N#Cc1ccc(C(O)C(F)(F)c2nc3ccccc3o2)cc1 (centres undefined)
Given back: > 100 µM (inactive)

Asked: Field request: GI50 | item: N#CCCN(CCC#N)c1ccc(/C=C(\NC(=O)c2cc([N+](=O)[O-])ccc2Cl)C(=O)Nc2ccccc2)cc1
Given back: > 100 µM (inactive)

* * *

In what follows, each item is paired with its log10 of GI50 for HCT-15.
Units before log transform: µM; reported quantity: GI50; transform: log10.

// solved cases for log10 of GI50 follow
Compound	log10 of GI50
CC(=O)N(C)c1cc(NCc2ccccc2)ccc1OCc1ccccc1	1.28
COc1cc(/C=C/C(=O)OCCc2ccccc2)ccc1O	1.34
COc1ccc(-c2nc(N(C)C)c3ccccc3n2)cc1	1.08
CN(C)c1n/c(=N/Cc2ccccn2)ss1	0.99

Asked: Report log10 of GI50 for C=C1CC[C@@H](CCC2CCC3(OC2)O[C@]2(O)CC[C@@]3(C)OC2(C)C)C(C)(C)[C@H]1C/C=C1\CCOC1=O (stereo not given in full) tested on HCT-15.
Given back: 1.05

Asked: Report log10 of GI50 for COc1cc2c(cc1-c1coc3cc(O)ccc3c1=O)OCO2 [CUNEATIN] tested on HCT-15.
Given back: 1.27

Asked: Report log10 of GI50 for C=C1c2[nH]c3ccccc3c2C2C(CC)C1CCN2C (stereo not given) tested on HCT-15.
Given back: 1.96

Asked: Report log10 of GI50 for COc1ccc(-c2csc(=[N+]3CCCCC3)s2)cc1 tested on HCT-15.
Given back: 1.67

Asked: Report log10 of GI50 for COc1c(CC=C(C)C)c(O)c(C(CC(C)C)c2c(O)c(C(C)=O)c(O)c3c2OC(C(C)(C)O)C3)c(O)c1C(C)=O (stereo not given) [ACROFOLIONE A] tested on HCT-15.
Given back: 0.59

* * *

- System: SNB-75
- Test Method Notes: NCI tumour cell line growth inhibition, 48 h
Activity calls are given as the source filed them. No stated cut-off is given here; in the data, active = GI50 up to about 1.1 µM and inactive = higher. Where a SMILES comes first, the peptide text is derived from it. [ ]: non-standard residue; d: D form. The star is where a group is joined. NMeF = CN[C@@H](Cc1ccccc1)C(=O)O; NMeV = CN[C@H](C(=O)O)C(C)C; Boc = CC(C)(C)OC(=O)*; OBn = c1ccc(CO*)cc1
Listed here: items and their measured GI50.

// solved cases for GI50 follow
Compound	GI50
C/C(CC(=O)CCCC(=O)Nc1ccc(Cl)cc1Cl)=N/NC(=O)CC#N	> 100 µM (inactive)
O=c1c2cc(Br)cc(Br)c2nc(CCCl)n1-c1ccc(O)c([N+](=O)[O-])c1	19.8 µM (inactive)
CC(C)[C@@H](C(=O)N1CCC[C@H]1C(=O)OCc1ccccc1)N(C)C(=O)[C@H](C(C)C)N(C)C(=O)[C@H](Cc1ccccc1)N(C)C(=O)[C@H](NC(=O)OC(C)(C)C)C(C)C (Boc-[dV][NMeF][NMeV][NMeV]P-OBn)	> 50 µM (inactive)
C=CCN1CCC(OC(=O)C(O)(/C=C\CC)C2CCCC2)CC1 (stereo not given)	> 100 µM (inactive)

Turning now to a further compound:
Asked: Report GI50 for c1ccc2c3nnc(c2c1)SCCSCCSc1nnc(c2ccccc12)SCCSCCS3 tested on SNB-75.
Given back: > 100 µM (inactive)

* * *

- System: SF-295
- Test Method Notes: NCI tumour cell line growth inhibition, 48 h
Counter-ions that a name gives are not always drawn. Active and inactive are the calls of the source. Cut-off read from the data, not from the text of the source: active = GI50 up to about 1.1 µM and inactive = higher.
Just give me one of these, please: active, inactive

Compound	Label Class
Oc1ccc(C(O)C2CCCCN2)cc1O (stereo not drawn) [RIMITEROL HYDROBROMIDE]	inactive
C=C(Cl)C(Cl)(CCl)CCC(Br)C(C)(C)Br (stereo not drawn)	inactive
CCCC(=O)OCC1OC(n2cc(F)c(=O)[nH]c2=O)C(F)C1O (stereo not drawn)	inactive
Nc1ccc(-c2nc3ccccc3s2)cc1I	inactive
Oc1cccc(-c2cc(=S)ss2)c1	inactive
Nc1nc(=O)[nH]c2c1cnn2Cc1ccccc1	inactive
COC(=O)CCC(=O)Nc1cc(Cl)ccc1Cl	inactive
CNc1ccccc1S(=O)(=O)c1ccccc1[N+](=O)[O-]	inactive

Asked: For CC(=O)Nc1cc2ccc(=O)oc2cc1Cl , which call appears in the assay record?
Given back: inactive

Asked: For C/C(=N\NC(=O)CC(=O)Nc1ccc(C)cc1)c1cc2ccccc2oc1=O , which call appears in the assay record?
Given back: inactive

Asked: For CCSCCC(N)C(=O)O (stereo not drawn) , which call appears in the assay record?
Given back: inactive

Asked: For CCOc1cc2c(cc1O)CC[C@@H]1[C@@H]2CC[C@]2(C)[C@@H](O)CC[C@@H]12 , which call appears in the assay record?
Given back: active

Asked: For N#CCCN(CCC#N)c1ccc(/C=C(\NC(=O)c2cc([N+](=O)[O-])ccc2Cl)C(=O)Nc2ccccc2)cc1 , which call appears in the assay record?
Given back: inactive

Asked: For Cn1c(-c2ccco2)ccc1-c1ccc(C=O)o1 , which call appears in the assay record?
Given back: inactive

Asked: For CCOC(=O)c1nnc2c(C(=O)OCC)c3ccccc3n2c1N , which call appears in the assay record?
Given back: inactive

Asked: For CCC(C)C1=C(O)[N+]2([O-])Oc3ccc(-c4c(O)c(O)c(-c5ccc(OC(C)=O)cc5)c(OC(C)=O)c4OC(C)=O)cc3OC2(C(C)CC)C(=O)N1O (stereo not drawn) , which call appears in the assay record?
Given back: inactive

Asked: For N=C(N)n1nc2c(c1O)CCCC2 , which call appears in the assay record?
Given back: inactive

Asked: For CC1(C)N=C(N)N=C(N)N1c1cccc(C(=O)Nc2ccc(S(=O)(=O)F)cc2)c1 , which call appears in the assay record?
Given back: inactive

Asked: For CCc1c(CN)c(CC)c(CNC2=NCCN2)c(CC)c1CNC1=NCCN1 , which call appears in the assay record?
Given back: inactive

Asked: For Cc1cn([C@H]2C=C[C@@H](CO)O2)c(=O)[nH]c1=O , which call appears in the assay record?
Given back: inactive

Asked: For N#Cc1ccc(C(O)C(F)(F)c2nc3ccccc3o2)cc1 (stereo not drawn) , which call appears in the assay record?
Given back: inactive

Asked: For COc1ccc(NC(=O)C2C(=O)N(c3ccc(OC)cc3)C(=O)/C2=N\NC(N)=O)cc1 (stereo not drawn) , which call appears in the assay record?
Given back: inactive

Asked: For CCOC(=O)/C=C(/C(=O)OCC)n1ccc(=O)n(Cc2cnnn2COCCOC(C)=O)c1=O , which call appears in the assay record?
Given back: inactive
